- Test system: SNB-75
- method notes: NCI tumour cell line growth inhibition, 48 h
The source made the active and inactive calls. Rule as the data show it: active = GI50 up to about 1.1 µM and inactive = higher. Residues, ends and D or L forms follow the SMILES beside them. Groups on a side chain read outwards from the residue. *: point of attachment. Cbz = O=C(OCc1ccccc1)*; Boc = CC(C)(C)OC(=O)*
The following molecules are shown together with reported GI50 values.
property name: GI50

| molecule | endpoint result |
| --- | --- |
| N#Cc1cnc(N)nc1NCC1(CO)CC(CCc2ccccc2)C1 (stereo not given) | 20.8 µM (inactive) |
| CC(C)CC(NC(=O)OCc1ccccc1)C(=O)NCCCCC(NC(=O)C(CCCCNC(=O)C(CC(C)C)NC(=O)OCc1ccccc1)NC(=O)C(CCCCNC(=O)C(CC(C)C)NC(=O)OCc1ccccc1)NC(=O)C(CCCCNC(=O)C(CC(C)C)NC(=O)OCc1ccccc1)NC(=O)OC(C)(C)C)C(=O)O (stereo not given) (Boc-K([Leu-Cbz])K([Leu-Cbz])K([Leu-Cbz])K([Leu-Cbz])-OH; configuration not given here) | > 25 µM (inactive) |
| Cn1c2ccccc2n2c3ncccc3c(=O)c(C#N)c12 | 12.2 µM (inactive) |
| CN1CCc2c3n(c4cc(Br)ccc24)[C@H](O)CCCC31 (stereo not given in full) | 2.3 µM (inactive) |
| CC1(C)C2CCC3(OCCO3)C1C(O)C2 (stereo not given) | > 100 µM (inactive) |
| CC(c1ccccc1)N1O[C@]12CC[C@@]1(C)C(CCCC13OCCO3)C2 (stereo not given in full) | 22.1 µM (inactive) |
| NCS(=O)(=O)O | > 100 µM (inactive) |
| CC(C)N(/C(F)=N\C(=O)Nc1ccccc1C(F)(F)F)C(C)C | > 100 µM (inactive) |
| O=c1[nH]cnc2c1ncn2C1SC(CO)C(O)C1O (stereo not given) | > 100 µM (inactive) |
| COC(=O)N/N=C(\C)c1c(O)cc(C)oc1=O | > 100 µM (inactive) |

====

- Test system: SK-MEL-2
- method notes: NCI tumour cell line growth inhibition, 48 h
Calls of active or inactive are those of the source. Cut-off read from the data, not from the text of the source: active = GI50 up to about 1.1 µM and inactive = higher.
Labels: t (active), f (inactive)

| molecule | answer label |
| --- | --- |
| CC1=CC[C@@H]2[C@@H](CC[C@@]2(C)O)C(C)(C)[C@H]1CC[C@@H]1[C@@]2(C)CC[C@@H](O)C(C)(C)O[C@@H]2CC[C@]1(C)O | f |
| c1ccc2oc(-c3ccc(-c4nc5ccccc5o4)c4c3CC4)nc2c1 | f |
| Cc1ccc(S(=O)(=O)N/N=C2\CC3C4C=CC3C2C4)cc1 (configuration not stated) | f |
| O=C1Sc2cc3ccccc3cc2C(=O)Sc2ccc(Br)cc21 | f |
| C[C@]12CCC(=O)C=C1CC[C@@H]1[C@@H]2[C@@H](O)C[C@@]2(C)[C@H]1CC[C@]2(O)C(=O)CO [HYDROCORTISONE] | f |
| CNC(=S)/C(=N\Nc1[nH]cnc1C(N)=O)C(N)=S | t |
| Cc1cc(C)c([S@@](=O)O[C@@H]2[C@H]3OC(C)(C)O[C@H]3O[C@@H]2[C@H]2COC(C)(C)O2)c(C)c1 | f |

====

The following compounds are shown together with reported GI50 values.
- Tested on: KM12
- method notes: NCI tumour cell line growth inhibition, 48 h
Calls of active or inactive are those of the source. No stated cut-off is given here; in the data, active = GI50 up to about 1.1 µM and inactive = higher.

| compound | GI50 |
| --- | --- |
| CC1=C(C(=O)Nc2ccc(Cl)c(Cl)c2)C(c2ccco2)C(C(=O)Nc2ccc(Cl)c(Cl)c2)=C(C)N1 | 13.4 µM (inactive) |
| CCOC(=O)CC(NC(=O)c1ccc(/N=N/N(C)C)cc1)C(=O)OCC (stereo unspecified) | > 100 µM (inactive) |
| c1ccc(/N=C2/SC3=Nc4cccc5cccc(c45)N3/C2=N/c2ccccc2)cc1 | > 100 µM (inactive) |
| O=c1c2ccccc2nc2n1NC(c1c(Cl)cccc1Cl)N2c1cccc(Cl)c1 (stereo unspecified) | 7.24 µM (inactive) |
| COc1c(-c2cc(C)c(Cl)c(=O)[nH]2)c(O)c(OC)c2occc12 | > 100 µM (inactive) |
| COc1cc(CNc2nc3ccccc3n2Cc2ccccc2)cc(CN2CCOCC2)c1O | 34.8 µM (inactive) |

The reported measurements were obtained from ChEMBL document CHEMBL1201862.
